- Test system: T. cruzi intracellular amastigotes in H9c2 cells
- measurement.protocol: Rate-of-Kill (RoK) high-content imaging assay, amastigotes per cell (AM/CELL) and curve descriptors
- Type: cell-based, Trypanosoma cruzi
- measurement.context: maximum effect at 72 h, RoK assay
- Protocol: For this high-content intracellular imaging assay, H9c2 cells were seeded in 225 cm^2 T- FLASK in DMEM with 10% FBS for 4 h to allow attachment. […] Trypomastigotes were then collected and counted in a CASY Cell Counter using the 60 μm capillary. […] Cells were counted in a CASY Cell Counter, using the 150 μm capillary, and their density set at 5 x 10^4 cells/mL in supplemented DMEM. […] Then plates were read in a PerkinElmer Opera Phenix using a 20x objective, 3 fields per well. […]
# reported ME_72h (%); entries follow
Answer with a number only, understood to be in %.

Some compounds with known ME_72h (%) results, for comparison:
O=C1CSC(c2cccnc2)N1c1ccc(Cl)cc1Cl (stereo not shown) | 74.0
CCN(C)Cc1ccc(N2CCC(NS(=O)(=O)c3ccc4c(c3)CCO4)CC2)nc1 | 55.4
Fc1ccc(OC2CC(NCc3cccc4cn[nH]c34)C2)cc1C(F)(F)F (stereo not shown) | 61.9

input: Name the reported ME_72h (%) value associated with the compound `Cc1cccnc1CN1CCN(CCCOc2ccc(-c3ccc(C(N)=O)cc3)cc2)CC1`
output: -404.0

input: Now this one: `COc1ccc(NS(=O)(=O)c2cccc(NC(=O)c3cc(F)cc(F)c3)c2)cc1`
output: 85.1

input: Now this one: CN(C)Cc1ccc(-c2ccc(S(=O)(=O)NCC3CCCO3)c(F)c2)cc1.O=C(O)C(F)(F)F (stereo not shown)
output: 67.0

input: Now this one: `O=C(C1CCCCC1)N1CCN(c2nnc(-c3ccccc3)c3ccccc23)CC1`
output: 88.0

input: Now this one: CC(C)c1cc(C(=O)N2CCCC(c3cc4ncccc4[nH]3)C2)on1 (stereo not shown)
output: 79.3

---

# reported ME_72h; entries follow
- Tested on: T. cruzi intracellular amastigotes in H9c2 cells
- measurement.protocol: Rate-of-Kill (RoK) high-content imaging assay, amastigotes per cell (AM/CELL) and curve descriptors
- Type: cell-based, Trypanosoma cruzi
- Design: key: % reduction in parasite burden (cidal response)
- measurement.context: 72h, figure 5
Reply with just the number.

Some molecules with known ME_72h results, for comparison:
O=C(NCc1ccncc1)c1ccccc1N1CCCN(C(=O)Cc2ccc(F)c(F)c2)CC1.O=C(O)C(F)(F)F.O=C(O)C(F)(F)F [TCMDC-143300] | 30.5548
CC1CN(S(=O)(=O)c2ccc(NC(=O)c3cc(C4CC4)nc4c3cnn4C(C)C)cc2)CC(C)O1 (centres unmarked) [TCMDC-143200] | 56.9286
O=C(Cn1ccnc1[N+](=O)[O-])NCc1ccccc1 [Benznidazole, benznidazole, reference compound] | 90.745

input: Name the reported ME_72h value associated with the molecule Cc1nc2nc(C)c(Cc3ccc(C(C)C)cc3)c(=O)n2[nH]1 [TCMDC-143087]
output: 64.9642

input: Now this one: N#Cc1cc(N2CCCC2=O)ccc1Sc1ccccc1CO [TCMDC-143604]
output: 78.1794

input: Now this one: FC(F)(F)c1cc(C2CCCN(Cc3c[nH]c4ccccc34)C2)nc2ncnn12.O=C(O)C(O)C(O)C(=O)O (centres unmarked) [TCMDC-143311]
output: 83.5796

input: Now this one: c1ccc2c(CCOc3nccnc3-c3ccncc3)c[nH]c2c1 [TCMDC-143562]
output: 12.8696

input: Now this one: COc1ccc(C(C)N(C)c2ncc3c(N)nc(N)nc3n2)cc1F (centres unmarked) [TCMDC-143298]
output: 72.4604
